Hello, the source for this data is the NIST ThermoML archive (doi:10.1021/je049652j), in case you need it.

Give molar heat capacity at constant pressure for every item shown.
EXPERIMENT: molar heat capacity at constant pressure
CONDITION LABEL: 316.65 K; 101.33 kPa; Liquid
All answers are understood in J/K/mol, so give the number only.

So, CCCCCBr [1-bromopentane] ? Its molar heat capacity at constant pressure was 196.21

So, CCCCCCCCl [1-chloroheptane] ? Its molar heat capacity at constant pressure was 252.2

So, CCCCBr [1-bromobutane] ? Its molar heat capacity at constant pressure was 166.49

So, CCCCCCCCCBr [1-bromononane] ? Its molar heat capacity at constant pressure was 316.32

So, CCCCCl [1-chlorobutane] ? Its molar heat capacity at constant pressure was 163.42

So, CCCCCCl [1-chloropentane] ? Its molar heat capacity at constant pressure was 193.22

So, CCCCCCCCCl [1-chlorooctane] ? Its molar heat capacity at constant pressure was 282.47

So, CCCCCCCCCCBr [1-bromodecane] ? Its molar heat capacity at constant pressure was 347.51

So, CCCCCCCCCCCl [1-chlorodecane] ? Its molar heat capacity at constant pressure was 343.41

So, CCCCCCCl [1-chlorohexane] ? Its molar heat capacity at constant pressure was 222.49

So, CCCCCCBr [1-bromohexane] ? Its molar heat capacity at constant pressure was 225.37

So, CCCCCCCBr [1-bromoheptane] ? Its molar heat capacity at constant pressure was 255.97

So, CCCBr [1-bromopropane] ? Its molar heat capacity at constant pressure was 136.68

----------
Give molar heat capacity at constant pressure for every item shown.
EXPERIMENT: molar heat capacity at constant pressure
CONDITION LABEL: 311.65 K; 101.33 kPa; Liquid
All answers are understood in J/K/mol, so give the number only.

So, CCCCBr [1-bromobutane] ? Its molar heat capacity at constant pressure was 165.34

So, CCCBr [1-bromopropane] ? Its molar heat capacity at constant pressure was 135.8

So, CCCCCCBr [1-bromohexane] ? Its molar heat capacity at constant pressure was 223.79

So, CCCCCCCl [1-chlorohexane] ? Its molar heat capacity at constant pressure was 221

So, CCCCCCCCCl [1-chlorooctane] ? Its molar heat capacity at constant pressure was 280.5

So, CCCCCCCCCBr [1-bromononane] ? Its molar heat capacity at constant pressure was 314.1

So, CCCCCCCCCCCl [1-chlorodecane] ? Its molar heat capacity at constant pressure was 341.39

So, CCCCl [1-chloropropane] ? Its molar heat capacity at constant pressure was 133.92

So, CCCCCCCCCCBr [1-bromodecane] ? Its molar heat capacity at constant pressure was 345.13

So, CCCCCCCCl [1-chloroheptane] ? Its molar heat capacity at constant pressure was 250.65

So, CCCCCl [1-chlorobutane] ? Its molar heat capacity at constant pressure was 162.24

So, CCCCCCl [1-chloropentane] ? Its molar heat capacity at constant pressure was 191.89

So, CCCCCCCBr [1-bromoheptane] ? Its molar heat capacity at constant pressure was 254.14

So, CCCCCBr [1-bromopentane] ? Its molar heat capacity at constant pressure was 194.86

----------
Give molar heat capacity at constant pressure for every item shown.
EXPERIMENT: molar heat capacity at constant pressure
CONDITION LABEL: 309.15 K; 101.33 kPa; Liquid
All answers are understood in J/K/mol, so give the number only.

So, `CCCCCCCCl` ? Its molar heat capacity at constant pressure was 249.54

So, `CCCCCCCCCCCl` ? Its molar heat capacity at constant pressure was 339.83

So, `CCCCCCCCCCBr` ? Its molar heat capacity at constant pressure was 343.89

So, `CCCCCCBr` ? Its molar heat capacity at constant pressure was 222.98

So, `CCCCl` ? Its molar heat capacity at constant pressure was 133.4

So, `CCCCCCl` ? Its molar heat capacity at constant pressure was 190.99
